Values were extracted from patent US11548870B2.

target: Helios (Homo sapiens, UniProt Q96SW2+Q9UKS7); construct: fluorescently labelled antibodies against Helios and Ikaros; endogenous in cells; host or cells: Jurkat cells; experiment: Helios Cellular Degradation Assay (flow cytometry, Helios-PE antibody staining, 72 h); assay type: cell-based; conditions: Jurkat cells, 72 h incubation, flow cytometry
Sequence (Q9UKS7 whole entry): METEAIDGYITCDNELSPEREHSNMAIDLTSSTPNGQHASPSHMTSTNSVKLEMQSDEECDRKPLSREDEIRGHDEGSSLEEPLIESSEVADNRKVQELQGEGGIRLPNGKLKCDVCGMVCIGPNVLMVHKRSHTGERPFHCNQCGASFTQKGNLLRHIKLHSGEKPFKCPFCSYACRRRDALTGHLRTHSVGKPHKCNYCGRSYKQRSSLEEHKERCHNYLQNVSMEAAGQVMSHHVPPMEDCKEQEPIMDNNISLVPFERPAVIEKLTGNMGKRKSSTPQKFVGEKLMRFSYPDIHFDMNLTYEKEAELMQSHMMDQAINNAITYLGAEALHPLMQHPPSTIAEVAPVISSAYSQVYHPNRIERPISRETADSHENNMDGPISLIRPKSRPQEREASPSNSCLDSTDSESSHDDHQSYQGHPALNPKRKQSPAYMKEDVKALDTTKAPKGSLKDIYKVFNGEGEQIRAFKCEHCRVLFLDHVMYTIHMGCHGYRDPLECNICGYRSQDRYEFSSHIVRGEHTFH
Sequence (Q96SW2 whole entry): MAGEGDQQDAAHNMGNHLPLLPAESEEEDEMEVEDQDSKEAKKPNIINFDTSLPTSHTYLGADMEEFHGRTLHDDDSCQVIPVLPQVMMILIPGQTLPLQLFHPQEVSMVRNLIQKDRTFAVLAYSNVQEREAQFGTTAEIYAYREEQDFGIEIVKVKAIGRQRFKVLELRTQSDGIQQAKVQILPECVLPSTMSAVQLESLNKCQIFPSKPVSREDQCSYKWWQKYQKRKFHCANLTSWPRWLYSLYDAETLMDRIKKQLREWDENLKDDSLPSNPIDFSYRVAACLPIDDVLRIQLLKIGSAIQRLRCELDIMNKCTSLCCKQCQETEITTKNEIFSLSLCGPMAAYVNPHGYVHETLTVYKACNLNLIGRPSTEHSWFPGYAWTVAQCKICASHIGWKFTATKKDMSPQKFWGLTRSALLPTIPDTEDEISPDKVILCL
Sequence (Q16531 whole entry partner): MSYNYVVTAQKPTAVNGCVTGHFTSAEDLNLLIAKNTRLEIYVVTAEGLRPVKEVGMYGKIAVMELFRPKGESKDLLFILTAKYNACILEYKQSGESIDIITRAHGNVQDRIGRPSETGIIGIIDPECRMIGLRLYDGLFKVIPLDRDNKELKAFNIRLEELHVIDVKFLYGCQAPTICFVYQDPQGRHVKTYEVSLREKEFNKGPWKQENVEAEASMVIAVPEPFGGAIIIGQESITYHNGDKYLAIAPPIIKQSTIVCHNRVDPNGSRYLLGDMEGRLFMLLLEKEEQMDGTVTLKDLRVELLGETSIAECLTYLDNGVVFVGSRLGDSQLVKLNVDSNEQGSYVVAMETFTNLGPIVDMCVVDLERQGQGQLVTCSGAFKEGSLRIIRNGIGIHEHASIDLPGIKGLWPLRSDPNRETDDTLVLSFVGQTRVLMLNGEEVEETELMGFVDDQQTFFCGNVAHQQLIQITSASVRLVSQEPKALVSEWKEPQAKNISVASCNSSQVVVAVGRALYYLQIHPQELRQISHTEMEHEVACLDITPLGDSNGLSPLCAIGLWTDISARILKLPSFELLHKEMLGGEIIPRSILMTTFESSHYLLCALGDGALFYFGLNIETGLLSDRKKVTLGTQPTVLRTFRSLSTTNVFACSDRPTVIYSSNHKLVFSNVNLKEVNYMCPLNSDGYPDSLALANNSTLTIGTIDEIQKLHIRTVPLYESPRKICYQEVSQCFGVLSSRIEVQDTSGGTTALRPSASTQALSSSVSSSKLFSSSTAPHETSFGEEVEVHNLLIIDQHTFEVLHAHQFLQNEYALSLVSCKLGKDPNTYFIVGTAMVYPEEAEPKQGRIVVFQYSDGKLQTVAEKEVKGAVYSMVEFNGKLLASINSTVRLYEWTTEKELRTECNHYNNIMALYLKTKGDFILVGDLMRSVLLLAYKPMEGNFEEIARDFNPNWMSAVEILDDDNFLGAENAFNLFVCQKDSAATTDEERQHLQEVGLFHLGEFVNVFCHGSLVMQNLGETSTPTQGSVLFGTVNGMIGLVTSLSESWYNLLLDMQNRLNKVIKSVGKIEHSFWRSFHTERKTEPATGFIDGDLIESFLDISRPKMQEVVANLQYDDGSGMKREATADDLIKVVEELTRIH
Recorded measurements of DC50, one per entry
The answer is to be given in nM; state only the numeric part.

Value of DC50 reported for the molecule COCCN(C)Cc1ccnc(-c2ccc3c(c2)CN(C2CCC(=O)NC2=O)C3=O)c1 (centres unmarked) is 138

# molecule O=C1CCC(N2Cc3cc(-c4cc(CN5CC[C@H](c6ccccc6)C5)ccn4)ccc3C2=O)C(=O)N1 (some centres unmarked) ; its DC50 = 37

Note to self: DC50 recorded for NC(=O)CNCc1ccnc(-c2ccc3c(c2)CN(C2CCC(=O)NC2=O)C3=O)c1 (centres unmarked) was 6130

Sure, the documented DC50 for O=C1CCC(N2Cc3cc(-c4cc(CNCCc5cccc(Cl)c5)ccn4)ccc3C2=O)C(=O)N1 (centres unmarked) is 11

Entry CC1CCCC(C)N1Cc1ccnc(-c2ccc3c(c2)CN(C2CCC(=O)NC2=O)C3=O)c1 (centres unmarked) ; DC50 = 231

Reported DC50 for CCCCNCc1ccnc(-c2ccc3c(c2)CN(C2CCC(=O)NC2=O)C3=O)c1 (centres unmarked) was 12

Input C[C@@H]1CCN(Cc2ccnc(-c3ccc4c(c3)CN(C3CCC(=O)NC3=O)C4=O)c2)C1 (some centres unmarked) . Output DC50: 19

Query O=C1CCC(N2Cc3cc(-c4cc(CN5CC(c6cccnc6)C5)c(F)cn4)ccc3C2=O)C(=O)N1 (centres unmarked) yields DC50 of 76
